This document collects IC50 values reported for Maltase-glucoamylase (Homo sapiens, UniProt O43451).
measurement type: IC50 (µM)

Answered examples (5):
O=c1[nH]c2ccccc2n2c(-c3ccc(O)cc3O)ccc12
12.9
O=C(/C=C/c1ccccc1)/C=C1/Nc2ccccc2NC1=O
40.1
O=c1[nH]c2ccccc2n2c(-c3ccc([N+](=O)[O-])cc3[N+](=O)[O-])ccc12
23
CC(C)c1nc2ccc(N3C(=O)CSC3c3ccc([N+](=O)[O-])cc3)cc2[nH]c1=O (stereo not drawn)
301
Cc1nc2ccccc2n(CC(=O)N/N=C/c2ccc(OCCn3cc(CN4CCCC4)nn3)cc2)c1=O
45.8

I: COc1cccc(/C=N/Nc2nc3ccccc3[nH]c2=O)c1
II: Cc1ccc(-n2cc(COc3ccc(/C=N/NC(=O)Cn4c(=O)c(C)nc5ccccc54)cc3)nn2)cc1
IN: Between I and II , which one shows the larger IC50 value? Refer to your chosen item by its label in the answer.
OUT: II

---

- method: Inhibition of P-gp in human K562 cells assessed as adriamycin IC50 at 10 ug/ml
measurement type: IC50 (nM)

Cc1nc2cc(F)ccc2[nH]c1=O
561
Cc1ccc2[nH]c(=O)c(C)nc2c1
688

Origin of the recorded values: BindingDB's records for PubMed 34998058
